Where do the numbers come from? From patent US20040034078A1.

Test system: A549 cells
Assay: Cytotoxicity Potentiation Assay; note: test concentration or dose not given here
Type: cell-based
Settings: ratio of IC50 of topotecan alone to IC50 of topotecan in combination with test compound

- molecule: "NC(=O)c1cccc2[nH]c(CS(=O)(=O)c3ccc(O)cc3)nc12"
  Cytotoxicity Potentiation PF50: 1.2
- molecule: "CC(=O)Nc1ccc(S(=O)(=O)Cc2nc3c(C(N)=O)cccc3n2C)cc1"
  Cytotoxicity Potentiation PF50: 1.2
- molecule: "COc1ccc(S(=O)(=O)Cc2nc3c(C(N)=O)cccc3[nH]2)cc1"
  Cytotoxicity Potentiation PF50: 1.3
- molecule: "NC(=O)c1cccc2[nH]c(CS(=O)(=O)c3ccc(NC(=O)CO)cc3)nc12"
  Cytotoxicity Potentiation PF50: 1.0
- molecule: "CCCCNCCS(=O)(=O)Cc1nc2c(C(N)=O)cccc2[nH]1"
  Cytotoxicity Potentiation PF50: 1.1
- molecule: "CC(=O)c1ccc(N2CCN(Cc3nc4c(C(N)=O)cccc4[nH]3)CC2)cc1"
  Cytotoxicity Potentiation PF50: 1.2
- molecule: "CC(=O)Nc1ccc(S(=O)(=O)Cc2nc3c(C(N)=O)cccc3[nH]2)cc1"
  Cytotoxicity Potentiation PF50: 1.1
- molecule: "CC(=O)Nc1ccc(CSc2nc3c(C(N)=O)cccc3[nH]2)cc1"
  Cytotoxicity Potentiation PF50: 1.1
- molecule: "NC(=O)c1cccc2[nH]c(CN3CCc4ccccc4C3)nc12"
  Cytotoxicity Potentiation PF50: 1.1
- molecule: "CC(=O)Nc1ccc(SCc2nc3c(C(N)=O)cccc3[nH]2)cc1"
  Cytotoxicity Potentiation PF50: 1.1
- molecule: "NC(=O)c1cccc2[nH]c(CS(=O)(=O)c3ccc(C(F)(F)F)cc3)nc12"
  Cytotoxicity Potentiation PF50: 1.2
- molecule: "CCCCNCCSCc1nc2c(C(N)=O)cccc2[nH]1"
  Cytotoxicity Potentiation PF50: 1.2
- molecule: "NC(=O)c1cccc2[nH]c(C[S+]([O-])c3ccc([N+](=O)[O-])cc3)nc12 (centres unmarked)"
  Cytotoxicity Potentiation PF50: 1.4
- molecule: "CN(CCc1ccccc1)Cc1nc2c(C(N)=O)cccc2[nH]1"
  Cytotoxicity Potentiation PF50: 1.4
- molecule: "NC(=O)c1cccc2[nH]c(CS(=O)(=O)c3ccc([N+](=O)[O-])cc3)nc12"
  Cytotoxicity Potentiation PF50: 1.3
- molecule: "NC(=O)c1cccc2[nH]c(CSc3ccccc3C3=NCCCN3)nc12"
  Cytotoxicity Potentiation PF50: 2.2
- molecule: "NC(=O)c1cccc2[nH]c(CS(=O)(=O)c3ccc(NC(=O)OCc4ccccc4)cc3)nc12"
  Cytotoxicity Potentiation PF50: 1.1
